Assayed System: recombinant conformational HCV E2 antigen (HCV genotype 1a) (hepatitis C virus, HCV1 (genotype 1a), UniProt P26664 383-715)
Sequence (P26664 383-715): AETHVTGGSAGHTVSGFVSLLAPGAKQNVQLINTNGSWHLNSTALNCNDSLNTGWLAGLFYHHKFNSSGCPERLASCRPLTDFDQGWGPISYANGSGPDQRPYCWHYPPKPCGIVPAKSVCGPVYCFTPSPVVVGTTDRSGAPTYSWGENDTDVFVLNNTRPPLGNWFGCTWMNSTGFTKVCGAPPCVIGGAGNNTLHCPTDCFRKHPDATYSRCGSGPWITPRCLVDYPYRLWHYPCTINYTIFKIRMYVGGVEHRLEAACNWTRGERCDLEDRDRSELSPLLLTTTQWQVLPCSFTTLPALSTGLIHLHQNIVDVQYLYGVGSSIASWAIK
Assay Metric: Kd

INPUT: Let me know recorded Kd for Fab molecule clone 1:5 (Fab, V domains shown) VH: VQLLEQSGAEVRKPGSSVKVSCKASGGTFSGHVITWVRQAPGQGLEWMGESIPIFGSANYAQNYAQKFRDRVSIIADESTSTSFIELSNLRSDDTAVYYCARDPPRYCSAGRCYPGFFQQWGQGTLVTVSS VL: AELTQSPGTLSLSPGERATLSCRASQSVSSNYLAWYQQRPGQAPRLLIYGASSRATGIPDRFSGSGSGTDFTLTISRLEPEDFAVYYCQLYGNSRWTFGQGTKVEIK , thanks.
OUTPUT: > 100 nM
